- test_system: human cannabinoid receptor 1 (huCB1), full length, expressed on cells (human, UniProt P21554 1-472)
- Sequence (P21554 whole entry): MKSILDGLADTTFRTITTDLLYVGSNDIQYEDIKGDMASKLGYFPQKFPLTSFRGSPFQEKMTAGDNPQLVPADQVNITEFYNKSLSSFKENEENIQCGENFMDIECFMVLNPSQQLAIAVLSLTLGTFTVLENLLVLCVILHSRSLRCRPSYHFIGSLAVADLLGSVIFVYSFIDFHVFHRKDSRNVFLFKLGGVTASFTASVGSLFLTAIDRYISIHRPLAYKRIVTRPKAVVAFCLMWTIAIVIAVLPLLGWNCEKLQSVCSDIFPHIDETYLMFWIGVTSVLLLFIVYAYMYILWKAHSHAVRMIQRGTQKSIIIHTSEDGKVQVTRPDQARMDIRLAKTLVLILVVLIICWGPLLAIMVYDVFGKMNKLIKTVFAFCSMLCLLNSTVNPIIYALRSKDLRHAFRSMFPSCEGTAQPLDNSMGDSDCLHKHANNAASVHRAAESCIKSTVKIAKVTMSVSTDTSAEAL
- protocol_summary: cell-based or functional assay

binder | unit_descriptor | Mean IC50, -fold vs Rimo
LIBC527912-1 (antibody, V domains shown) VH: QVQLQESGPGLVKPSQTLSLTCTVSGGSIRRGGDYWSWIRQHPGKGLEWIGYIYQTGQTKYNPNFEGRATISVNTYKNQFSLKLSSVTAADTAVYYCARDYDILTGYSYYYYGMDVWGQGTTVTVSS VL: DIQLTQSPSSLSASVGDRVTITCRASQSISSYLNWYQQKPGKAPKLLIYAASSLRSGVPSRFSGSGSGTDFTLTISSLQPEDFATYYCQQYSNYPLTFGGGTRVEIKR | fold vs Rimonabant | 1.32
LIBC527827-1 (antibody, V domains shown) VH: QVQLQESGPGLVKPSQTLSLTCTVSGGSIRRGGDYWGWIRQHPGKGLEWIGHVYQSGQTAYNPKFENRATISVKTYKNQFSLKLSSVTAADTAVYYCARNYDTLTGHSYYYYGMDVWGQGTTVTVSS VL: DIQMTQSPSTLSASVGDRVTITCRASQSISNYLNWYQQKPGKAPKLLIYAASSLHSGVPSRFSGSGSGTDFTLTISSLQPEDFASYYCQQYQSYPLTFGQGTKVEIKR | fold vs Rimonabant | 7.89
LIBC527919-1 (antibody, V domains shown, Expressed as IgG1 SEFL2 mAb) VH: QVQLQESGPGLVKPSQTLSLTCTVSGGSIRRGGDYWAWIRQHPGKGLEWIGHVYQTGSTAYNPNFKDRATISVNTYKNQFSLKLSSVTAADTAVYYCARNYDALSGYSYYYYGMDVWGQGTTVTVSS VL: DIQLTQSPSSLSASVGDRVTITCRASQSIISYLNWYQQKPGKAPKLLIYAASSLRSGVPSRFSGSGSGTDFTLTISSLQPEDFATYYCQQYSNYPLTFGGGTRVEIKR | fold vs Rimonabant | 1.15
LIBC527906-1 (antibody, V domains shown) VH: QVQLQESGPGLVKPSQTLSLTCTVSGGSIRRGGDYWGWIRQHPGKGLEWIGHIYQTGSTNYNPNFKDRATISVDTYKNQFSLKLSSVTAADTAVYYCARDYDILTGYSYYYYGMDVWGQGTTVTVSS VL: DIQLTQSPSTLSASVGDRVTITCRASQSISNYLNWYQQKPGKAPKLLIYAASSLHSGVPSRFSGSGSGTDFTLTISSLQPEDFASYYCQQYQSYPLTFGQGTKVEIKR | fold vs Rimonabant | 1.72
LIBC523760-1 (antibody, V domains shown) VH: QVQLQESGPGLVKPSQTLSLTCTVSGGSIRRGGDYWSWIRQHPGKGLEWIGHVYQTGSTKYNPKFKGRATISVNTYKNQFSLKLSSVTAADTAVYYCARDYDILTGYSYYYYGMDVWGQGTTVTVSS VL: DIVMTQSPLSLPVTPGEPASISCRSSQSLLTSSGANYVDWYLQKPGQSPQLLIYLGSNRASGVPDRFSGSGSGTDFTLKISRVEAEDVGVYYCRQAVGTPRTFGQGTKVEIKR | fold vs Rimonabant | 1.43
LIBC528131-1 (antibody, V domains shown) VH: QVQLQESGPGLVKPSQTLSLTCTVSGGSIRRGGDYWSWIRQHPGKGLEWIGHIYQTGQTAYNPNLEGRATISVNTYKNQFSLKLSSVTAADTAVYYCARDYDILTGYSYYYYGMDVWGQGTTVTVSS VL: EIVLTQSPATLSLSPGERATLSCRASQSVSSYLGWYQQKPGQAPRLLIYGASSRATGIPDRFSGSGSGTDFTLTISRLEPEDFAVYYCQQYGSSPRTFGQGTKVEIKR | fold vs Rimonabant | 1.41
LIBC523862-1 (antibody, V domains shown) VH: QVQLQESGPGLVKPSQTLSLTCTVSGGSIRRGGDYWSWIRQHPGKGLEWIGHIYQTGSTAYNPSLKGRATISVNTYKNQFSLKLSSVTAADTAVYYCARDYDILTGYSYYYYGMDVWGQGTTVTVSS VL: DIVMTQSPLSLPVTPGEPASISCRSSQSLLHSTGANYVDWYLQKPGQSPQLLIYLGSNRASGVPDRFSGSGSGTDFTLKISRVEAEDVGVYYCRQAIALPRTFGQGTKVEIKR | fold vs Rimonabant | 2.44
LIBC523603-1 (antibody, V domains shown) VH: QVQLQESGPGLVKPSQTLSLTCTVSGGSIRRGGDYWAWIRQHPGKGLEWIGHVYQSGQTAYNPNFENRATISVNTYKNQFSLKLSSVTAADTAVYYCARDYDAVSGYSYYYYGMDVWGQGTTVTVSS VL: DIVMTQSPLSLPVTPGEPASISCRSSQSLLSSYGNNYVDWYLQKPGQSPQLLIYQGSNRASGVPDRFSGSGSGTDFTLKISRVEAEDVGVYYCRQAVGLPRTFGQGTKVEIKR | fold vs Rimonabant | 1.57
LIBC523857-1 (antibody, V domains shown) VH: QVQLQESGPGLVKPSQTLSLTCTVSGGSIRRGGDYWSWIRQHPGKGLEWIGHIYQTGQTAYNPRLEGRATISVNTYKNQFSLKLSSVTAADTAVYYCARDYDILTGYSYYYYGMDVWGQGTTVTVSS VL: DIVMTQSPLSLPVTPGEPASISCRSSQSLLSSTGANYLDWYLQKPGQSPQLLIYLGSNRASGVPDRFSGSGSGTDFTLKISRVEAEDVGVYYCRQAVELPRTFGQGTKVEIKR | fold vs Rimonabant | 2.65
LIBC528141-1 (antibody, V domains shown) VH: QVQLQESGPGLVKPSQTLSLTCTVSGGSIRRGGDYWSWIRQHPGKGLEWIGHVYQTGSTKYNPRFKGRATISVNTYKNQFSLKLSSVTAADTAVYYCARDYDILTGYSYYYYGMDVWGQGTTVTVSS VL: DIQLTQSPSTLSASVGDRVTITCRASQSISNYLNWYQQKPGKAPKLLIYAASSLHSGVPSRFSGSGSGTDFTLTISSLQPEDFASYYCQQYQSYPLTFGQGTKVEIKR | fold vs Rimonabant | 1.35
